Molecular target: Kir3.1/Kir3.2 (Homo sapiens, UniProt P48051+P48549)
Sequence (P48549 whole entry): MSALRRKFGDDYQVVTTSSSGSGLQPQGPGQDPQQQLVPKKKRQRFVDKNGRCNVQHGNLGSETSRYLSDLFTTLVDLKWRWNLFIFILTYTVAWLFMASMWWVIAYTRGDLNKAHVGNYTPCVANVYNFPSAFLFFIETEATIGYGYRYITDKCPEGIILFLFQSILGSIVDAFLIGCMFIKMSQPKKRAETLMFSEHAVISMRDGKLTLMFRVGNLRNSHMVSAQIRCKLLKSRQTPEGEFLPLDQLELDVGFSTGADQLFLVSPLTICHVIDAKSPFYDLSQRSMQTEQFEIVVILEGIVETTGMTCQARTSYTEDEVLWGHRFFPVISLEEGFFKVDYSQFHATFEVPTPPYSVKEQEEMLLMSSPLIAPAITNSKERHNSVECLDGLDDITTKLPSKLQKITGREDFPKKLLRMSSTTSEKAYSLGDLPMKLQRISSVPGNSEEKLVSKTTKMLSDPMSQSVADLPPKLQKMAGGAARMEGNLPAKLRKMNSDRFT
Sequence (P48051 whole entry): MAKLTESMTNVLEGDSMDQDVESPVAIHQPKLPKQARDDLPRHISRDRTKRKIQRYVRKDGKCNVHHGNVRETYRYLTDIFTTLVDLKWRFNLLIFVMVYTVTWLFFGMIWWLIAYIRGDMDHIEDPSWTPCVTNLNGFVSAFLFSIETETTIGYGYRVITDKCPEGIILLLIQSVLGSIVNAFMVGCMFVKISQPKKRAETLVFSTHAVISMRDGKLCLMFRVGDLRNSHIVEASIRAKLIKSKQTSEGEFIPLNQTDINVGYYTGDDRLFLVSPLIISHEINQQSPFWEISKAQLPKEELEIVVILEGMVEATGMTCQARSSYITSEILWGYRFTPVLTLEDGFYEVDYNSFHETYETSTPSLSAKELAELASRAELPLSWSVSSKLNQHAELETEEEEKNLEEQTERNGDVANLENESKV
Assay: Activation of GIRK1/2 (unknown origin) by thallium-flux based assay
measuredEndpoint: EC50 (nM)

// known answers, use as guide
Give its EC50 value. Item: CC1CC1c1cc(NC(=O)Nc2ccc(Cl)cc2)n(CC(F)(F)F)n1 (stereo unspecified)
150

Query CC1CC1c1cc(NC(=O)Nc2ccc(F)c(F)c2)n(CC(F)(F)F)n1 (stereo unspecified) next
4900

Query CC1CC1c1cc(NC(=O)Nc2ccc(C(F)(F)F)cc2)n(CC(F)(F)F)n1 (stereo unspecified) next
310

Query CC1CC1c1cc(NC(=O)Nc2cccc(F)c2)n(CC(F)(F)F)n1 (stereo unspecified) next
310

1: Cc1ccc(NC(=O)Nc2cc(C3CC3C)nn2CC(F)(F)F)cc1 (stereo unspecified)
2: Cc1cc(NC(=O)Nc2cc(C3CC3C)nn2CC(F)(F)F)ccc1F (stereo unspecified)
Hey, which is lower on measured EC50, 1 or 2 ? Give the label of your selection.
1

Source: ChEMBL document CHEMBL3352610
